Tgt: human serum albumin (HSA) (Homo sapiens, UniProt P02768)
Construct: purchased Sigma-Aldrich Co
Sequence (P02768 25-609): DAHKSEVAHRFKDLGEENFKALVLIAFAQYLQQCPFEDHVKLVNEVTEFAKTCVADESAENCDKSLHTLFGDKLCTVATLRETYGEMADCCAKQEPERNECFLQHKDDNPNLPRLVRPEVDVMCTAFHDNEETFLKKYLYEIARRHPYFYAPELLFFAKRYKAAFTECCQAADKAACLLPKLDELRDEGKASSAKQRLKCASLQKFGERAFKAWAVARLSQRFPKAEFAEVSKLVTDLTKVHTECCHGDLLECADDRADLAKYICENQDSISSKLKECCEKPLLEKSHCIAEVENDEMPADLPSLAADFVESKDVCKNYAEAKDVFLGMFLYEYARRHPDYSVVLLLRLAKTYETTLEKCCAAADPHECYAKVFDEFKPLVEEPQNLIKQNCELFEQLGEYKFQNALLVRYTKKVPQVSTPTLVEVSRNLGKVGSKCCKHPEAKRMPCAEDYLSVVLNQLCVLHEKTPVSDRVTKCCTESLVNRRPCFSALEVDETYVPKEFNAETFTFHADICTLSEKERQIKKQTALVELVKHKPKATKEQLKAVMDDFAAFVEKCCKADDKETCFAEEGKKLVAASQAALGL
Experimental details: Competitive albumin-fluorescence studies with warfarin and ibuprofen
Format: binding
Study conditions: in the presence of warfarin
Metric name: K(HSA, warfarin)

[[record]]
molecule = "CO.CO.CO.CO.O=C([O-])c1ccccc1Nc1ccc([N+](=O)[O-])cc1.O=C([O-])c1ccccc1Nc1ccc([N+](=O)[O-])cc1.[Co+2] [Complex 1, [Co(4′–NO2–fen)2(MeOH)4]]"
tgt = "human serum albumin (HSA) (Homo sapiens, UniProt P02768)"
endpoint_value = "1.99 (±0.11) × 10^5 M^−1"


GET /values?readout=K(HSA, warfarin)&item= C[O-].C[O-].Cc1ccc2ccc3ccc(C)nc3c2n1.Cc1ccc2ccc3ccc(C)nc3c2n1.O=C([O-])c1ccccc1Nc1ccc([N+](=O)[O-])cc1.O=C([O-])c1ccccc1Nc1ccc([N+](=O)[O-])cc1.[Co+2].[Co+2] [Complex 4, [Co2(4′–NO2–fen)2(μ–CH3O)2(neoc)2]] 5.00 (±0.18) × 10^5 M^−1

GET /values?readout=K(HSA, warfarin)&item= O=C([O-])c1ccccc1Nc1ccc([N+](=O)[O-])cc1.O=C([O-])c1ccccc1Nc1ccc([N+](=O)[O-])cc1.[Co+2].c1ccc(Nc2ccccn2)nc1 [Complex 2, [Co(4′–NO2–fen)2(bipyam)]] 2.75 (±0.19) × 10^5 M^−1

GET /values?readout=K(HSA, warfarin)&item= `O=C(O)c1ccccc1Nc1ccc([N+](=O)[O-])cc1` 3.22 (±0.12) × 10^5 M^−1

GET /values?readout=K(HSA, warfarin)&item= O=C([O-])c1ccccc1Nc1ccc([N+](=O)[O-])cc1.O=C([O-])c1ccccc1Nc1ccc([N+](=O)[O-])cc1.[Co+2].c1cnc2c(c1)ccc1cccnc12 [Complex 3, [Co(4′–NO2–fen)2(phen)]] 4.80 (±0.17) × 10^5 M^−1

* * *

System: CT DNA
Experimental details: DNA-melting temperature of CT DNA in presence of the compounds
Assay type: binding, calf
Study conditions: compound–DNA ratio 1:50; CT DNA alone Tm 80.7 °C
Metric name: Tm of CT DNA in the presence of the compound (°C)
Give just the numeric value; °C need not be written.

[[record]]
compound = "CO.CO.CO.CO.O=C([O-])c1ccccc1Nc1ccc([N+](=O)[O-])cc1.O=C([O-])c1ccccc1Nc1ccc([N+](=O)[O-])cc1.[Co+2] [Complex 1, [Co(4′–NO2–fen)2(MeOH)4]]"
endpoint_value = 83.7


GET /values?readout=Tm of CT DNA in the presence of the compound&item= C[O-].C[O-].Cc1ccc2ccc3ccc(C)nc3c2n1.Cc1ccc2ccc3ccc(C)nc3c2n1.O=C([O-])c1ccccc1Nc1ccc([N+](=O)[O-])cc1.O=C([O-])c1ccccc1Nc1ccc([N+](=O)[O-])cc1.[Co+2].[Co+2] [Complex 4, [Co2(4′–NO2–fen)2(μ–CH3O)2(neoc)2]] 73.9

* * *

System: CT DNA
Experimental details: DNA-melting temperature of CT DNA in presence of the compounds
Assay type: binding, calf
Study conditions: compound–DNA ratio 1:50; CT DNA alone Tm 80.7 °C
Metric name: Tm of CT DNA in the presence of the compound
Write down the value, and be sure its unit follows.

Recorded Tm of CT DNA in the presence of the compound, per entry:
[[record]]
molecule = "O=C([O-])c1ccccc1Nc1ccc([N+](=O)[O-])cc1.O=C([O-])c1ccccc1Nc1ccc([N+](=O)[O-])cc1.[Co+2].c1ccc(Nc2ccccn2)nc1 [Complex 2, [Co(4′–NO2–fen)2(bipyam)]]"
endpoint_value = "74.5 °C"

[[record]]
molecule = "O=C(O)c1ccccc1Nc1ccc([N+](=O)[O-])cc1"
endpoint_value = "83.7 °C"


Observed Tm of CT DNA in the presence of the compound on CT DNA for O=C([O-])c1ccccc1Nc1ccc([N+](=O)[O-])cc1.O=C([O-])c1ccccc1Nc1ccc([N+](=O)[O-])cc1.[Co+2].c1cnc2c(c1)ccc1cccnc12 [Complex 3, [Co(4′–NO2–fen)2(phen)]] , please. 84.7 °C

* * *

Tgt: human serum albumin (HSA) (Homo sapiens, UniProt P02768)
Construct: purchased Sigma-Aldrich Co
Experimental details: Competitive albumin-fluorescence studies with warfarin and ibuprofen
Assay type: binding
Study conditions: in the presence of ibuprofen
Metric name: K(HSA, ibuprofen)

[[record]]
compound = "O=C(O)c1ccccc1Nc1ccc([N+](=O)[O-])cc1 [4′–NO2–fenH, 4′–nitrofenamic acid]"
tgt = "human serum albumin (HSA) (Homo sapiens, UniProt P02768)"
endpoint_value = "2.91 (±0.06) × 10^5 M^−1"

[[record]]
compound = "O=C([O-])c1ccccc1Nc1ccc([N+](=O)[O-])cc1.O=C([O-])c1ccccc1Nc1ccc([N+](=O)[O-])cc1.[Co+2].c1cnc2c(c1)ccc1cccnc12 [Complex 3, [Co(4′–NO2–fen)2(phen)]]"
tgt = "human serum albumin (HSA) (Homo sapiens, UniProt P02768)"
endpoint_value = "5.23 (±0.17) × 10^4 M^−1"

[[record]]
compound = "CO.CO.CO.CO.O=C([O-])c1ccccc1Nc1ccc([N+](=O)[O-])cc1.O=C([O-])c1ccccc1Nc1ccc([N+](=O)[O-])cc1.[Co+2] [Complex 1, [Co(4′–NO2–fen)2(MeOH)4]]"
tgt = "human serum albumin (HSA) (Homo sapiens, UniProt P02768)"
endpoint_value = "1.66 (±0.09) × 10^5 M^−1"

[[record]]
compound = "C[O-].C[O-].Cc1ccc2ccc3ccc(C)nc3c2n1.Cc1ccc2ccc3ccc(C)nc3c2n1.O=C([O-])c1ccccc1Nc1ccc([N+](=O)[O-])cc1.O=C([O-])c1ccccc1Nc1ccc([N+](=O)[O-])cc1.[Co+2].[Co+2] [Complex 4, [Co2(4′–NO2–fen)2(μ–CH3O)2(neoc)2]]"
tgt = "human serum albumin (HSA) (Homo sapiens, UniProt P02768)"
endpoint_value = "3.04 (±0.15) × 10^5 M^−1"


// moving on: another record for K(HSA, ibuprofen)
GET /values?readout=K(HSA, ibuprofen)&item= O=C([O-])c1ccccc1Nc1ccc([N+](=O)[O-])cc1.O=C([O-])c1ccccc1Nc1ccc([N+](=O)[O-])cc1.[Co+2].c1ccc(Nc2ccccn2)nc1 [Complex 2, [Co(4′–NO2–fen)2(bipyam)]] 2.02 (±0.03) × 10^5 M^−1

* * *

Tgt: bovine serum albumin (BSA) (Bos taurus, UniProt P02769)
Construct: purchased Sigma-Aldrich Co
Sequence (P02769 25-607): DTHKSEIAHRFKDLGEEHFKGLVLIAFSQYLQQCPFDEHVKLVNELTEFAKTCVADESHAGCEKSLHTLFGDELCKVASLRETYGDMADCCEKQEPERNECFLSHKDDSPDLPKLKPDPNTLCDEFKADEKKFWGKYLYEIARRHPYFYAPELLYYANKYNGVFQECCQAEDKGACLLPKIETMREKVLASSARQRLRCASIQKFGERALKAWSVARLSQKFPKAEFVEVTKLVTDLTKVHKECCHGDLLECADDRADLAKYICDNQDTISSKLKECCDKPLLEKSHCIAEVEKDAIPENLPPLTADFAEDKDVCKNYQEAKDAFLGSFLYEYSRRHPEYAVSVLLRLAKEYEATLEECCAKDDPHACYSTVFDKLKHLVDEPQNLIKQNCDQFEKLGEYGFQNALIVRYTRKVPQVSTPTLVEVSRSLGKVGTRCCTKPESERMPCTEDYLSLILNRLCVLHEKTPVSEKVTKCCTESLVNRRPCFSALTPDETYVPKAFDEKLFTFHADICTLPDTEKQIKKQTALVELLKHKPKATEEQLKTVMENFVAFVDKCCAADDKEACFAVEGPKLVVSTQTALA
Experimental details: Albumin tryptophan fluorescence quenching
Format: binding
Study conditions: τ0 = 10^−8 s
The entries below are paired with their reported Kq (BSA).

[[record]]
compound = "C[O-].C[O-].Cc1ccc2ccc3ccc(C)nc3c2n1.Cc1ccc2ccc3ccc(C)nc3c2n1.O=C([O-])c1ccccc1Nc1ccc([N+](=O)[O-])cc1.O=C([O-])c1ccccc1Nc1ccc([N+](=O)[O-])cc1.[Co+2].[Co+2] [Complex 4, [Co2(4′–NO2–fen)2(μ–CH3O)2(neoc)2]]"
metric_name = "Kq (BSA)"
endpoint_value = "2.19 (±0.05) × 10^13 M^−1s^−1"

[[record]]
compound = "O=C(O)c1ccccc1Nc1ccc([N+](=O)[O-])cc1"
metric_name = "Kq (BSA)"
endpoint_value = "1.18 (±0.09) × 10^13 M^−1s^−1"

[[record]]
compound = "O=C([O-])c1ccccc1Nc1ccc([N+](=O)[O-])cc1.O=C([O-])c1ccccc1Nc1ccc([N+](=O)[O-])cc1.[Co+2].c1cnc2c(c1)ccc1cccnc12 [Complex 3, [Co(4′–NO2–fen)2(phen)]]"
metric_name = "Kq (BSA)"
endpoint_value = "1.64 (±0.04) × 10^13 M^−1s^−1"


Observed Kq (BSA) on bovine serum albumin (BSA) (Bos taurus, UniProt P02769) for CO.CO.CO.CO.O=C([O-])c1ccccc1Nc1ccc([N+](=O)[O-])cc1.O=C([O-])c1ccccc1Nc1ccc([N+](=O)[O-])cc1.[Co+2] [Complex 1, [Co(4′–NO2–fen)2(MeOH)4]] , please. 9.51 (±0.06) × 10^12 M^−1s^−1

Observed Kq (BSA) on bovine serum albumin (BSA) (Bos taurus, UniProt P02769) for O=C([O-])c1ccccc1Nc1ccc([N+](=O)[O-])cc1.O=C([O-])c1ccccc1Nc1ccc([N+](=O)[O-])cc1.[Co+2].c1ccc(Nc2ccccn2)nc1 [Complex 2, [Co(4′–NO2–fen)2(bipyam)]] , please. 1.30 (±0.06) × 10^13 M^−1s^−1
